Would you mind telling me the reported % squalene protection of each entry?
assay procedure: Antioxidant potential against squalene hydroperoxidation by singlet oxygen (quenching, methylene blue, UV-B, HPLC)
study conditions: compound 1 mM in methanol; UV-B radiation dose 1.42 J·cm−2; methylene blue photosensitizer
Numbers only, in %.

> print(dat)
                     compound  experimental.value
1  CS/C=C\C(=O)NCCc1ccc(O)cc1                  35
2            CS/C=C\C(=O)NCCO                  24
3  CS/C=C/C(=O)NCCc1ccc(O)cc1                  30

Field: % squalene protection. Fill in for each record below.
1. CS/C=C/C(=O)NCCO
2. CSCCCNC(=O)C(CCSC)NC(C)=O (centres unmarked) [AMDM, methylthiopropylamido acetyl methionine, reference compound]

[reply]
1. 71
2. 3
